target: human ether-à-go-go-related gene (hERG) potassium channel (human); assay: primary screen, population patch clamp on CHO cells stably expressing hERG; higher = less effect of the substance
Sequence (Q12809 whole entry, looked up): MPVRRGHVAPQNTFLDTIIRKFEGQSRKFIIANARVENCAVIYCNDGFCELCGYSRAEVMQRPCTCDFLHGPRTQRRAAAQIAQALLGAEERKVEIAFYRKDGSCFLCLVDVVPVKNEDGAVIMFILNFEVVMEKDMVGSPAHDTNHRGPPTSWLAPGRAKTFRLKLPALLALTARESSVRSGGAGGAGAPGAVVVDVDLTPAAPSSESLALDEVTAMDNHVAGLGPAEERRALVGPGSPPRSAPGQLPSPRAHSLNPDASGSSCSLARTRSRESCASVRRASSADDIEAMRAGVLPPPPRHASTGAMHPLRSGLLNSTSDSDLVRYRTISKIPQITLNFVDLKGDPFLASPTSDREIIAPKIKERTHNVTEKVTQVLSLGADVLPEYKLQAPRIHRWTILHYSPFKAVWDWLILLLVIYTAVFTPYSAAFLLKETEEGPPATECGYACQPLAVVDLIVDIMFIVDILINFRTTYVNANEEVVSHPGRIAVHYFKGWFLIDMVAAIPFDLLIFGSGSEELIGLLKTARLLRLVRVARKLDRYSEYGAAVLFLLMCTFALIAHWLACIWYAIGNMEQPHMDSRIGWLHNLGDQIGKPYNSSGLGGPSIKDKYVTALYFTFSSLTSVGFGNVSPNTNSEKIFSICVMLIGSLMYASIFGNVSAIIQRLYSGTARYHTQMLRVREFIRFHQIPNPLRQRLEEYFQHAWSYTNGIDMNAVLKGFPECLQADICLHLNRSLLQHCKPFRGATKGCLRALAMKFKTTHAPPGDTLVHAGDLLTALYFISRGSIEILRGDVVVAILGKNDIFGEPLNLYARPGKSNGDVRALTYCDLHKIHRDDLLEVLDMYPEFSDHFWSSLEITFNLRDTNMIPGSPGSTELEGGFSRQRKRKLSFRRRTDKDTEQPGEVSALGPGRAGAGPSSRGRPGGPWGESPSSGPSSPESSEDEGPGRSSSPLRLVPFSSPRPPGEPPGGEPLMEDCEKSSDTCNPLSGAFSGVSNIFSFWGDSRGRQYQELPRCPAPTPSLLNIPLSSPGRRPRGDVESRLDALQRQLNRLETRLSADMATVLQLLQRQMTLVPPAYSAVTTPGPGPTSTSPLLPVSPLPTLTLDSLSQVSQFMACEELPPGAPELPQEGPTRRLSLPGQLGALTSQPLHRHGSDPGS
Out of some 310,000 compounds screened, about 2,200 (0.71%) showed an effect of 50% or more. Effects have a minus sign here. For the sample, strong results were picked, then their nearest neighbours and some compounds at random.
Endpoint: hERG current change (%, negative = inhibition) at 1uM
Mention the unit after the number when you answer.

Observe how each entry below is paired with its result.
# Compound, Endpoint result
data = [
    ("Nc1c(-c2ccccc2)nc(Cl)nc1-c1ccccc1", "13.2%"),
    ("COc1ccc(F)cc1C(=O)C1CCCN(Cc2ccc(Oc3ncccn3)cc2)C1 (stereo not shown)", "-34.8%"),
    ("O=C(c1cc(F)ccc1F)C1CCCN(CCCc2ccccc2)C1 (stereo not shown)", "-76.6%"),
    ("COc1ccc(F)cc1C(=O)C1CCCN(Cc2cccn2-c2cccnc2)C1 (stereo not shown)", "5.09%"),
]

Qu. Recorded hERG current change (%, negative = inhibition) at 1uM for O=C(COC(=O)CCC(=O)c1ccc(F)cc1)Nc1nnc(-c2ccccc2)o1 with human ether-à-go-go-related gene (hERG) potassium channel (human), please?
Ans. -0.682%

Qu. GET /values?readout=hERG current change (%, negative = inhibition) at 1uM&system=human ether-à-go-go-related gene (hERG) potassium channel (human)&item= COc1ccc(C(=O)C2CCCN(Cc3cccn3-c3ccccn3)C2)cc1F (stereo not shown)
Ans. -87.1%

Qu. Give human ether-à-go-go-related gene (hERG) potassium channel (human) hERG current change (%, negative = inhibition) at 1uM for COc1ccc(C(=O)C2CCCN(Cc3ccc(F)cc3F)C2)cc1F (stereo not shown)
Ans. 3.8%

Qu. // lookup hERG current change (%, negative = inhibition) at 1uM | system=human ether-à-go-go-related gene (hERG) potassium channel (human) | key= O=C(c1cc(F)ccc1F)C1CCCN(Cc2cccc(Cl)c2)C1 (stereo not shown)
Ans. 8.46%

Qu. Recall the recorded hERG current change (%, negative = inhibition) at 1uM for COc1ccc(C(=O)C2CCCN(Cc3cn(C)nc3-c3ccccc3)C2)cc1F (stereo not shown) with human ether-à-go-go-related gene (hERG) potassium channel (human) and state it.
Ans. -19.1%

Qu. Request body: readout hERG current change (%, negative = inhibition) at 1uM, system human ether-à-go-go-related gene (hERG) potassium channel (human), query COc1ccc(F)cc1C(=O)C1CCCN(Cc2cccn2-c2ccccn2)C1 (stereo not shown) . Return the value.
Ans. -89.9%
